- testDetails: Pharmacokinetics in Wistar rats, IV/IP/PO
- Type: in vivo
- protocolConditions: Wistar, rat, plasma, iv, 5 mg/kg
experimentalEndpoint: Tmax (min)
The reply should contain only the number, in min.

Tmax for Cc1ccc2c(c1)c1c(n2CCc2ccccc2)CCN(C)C1 [AVN-101] ?
5

====

- testDetails: Pharmacokinetics in Rhesus monkeys
- Format: in vivo
- protocolConditions: rhesus monkey, in vivo, iv, 2 mg/kg, AUC0 ⟶t, monkey 34887, IV 2 mg/kg
experimentalEndpoint: AUC (ng·h/mL)
The reply should contain only the number, in ng·h/mL.

AUC for Cc1ccc2c(c1)c1c(n2CCc2ccccc2)CCN(C)C1 ?
356
